# credit: ChEMBL document CHEMBL4229358

# TARGET SYSTEM: Carbonic anhydrase 9 (Homo sapiens, UniProt Q16790)
# PROTOCOL DESCRIPTION: Inhibition of transmembrane human carbonic anhydrase 9 by stopped flow CO2 hydration assay
Task for the reader: assign each of the following compounds its reported pKi.
In simple prose, pKi is minus the logarithm base ten of a concentration in moles per litre.

Give the measured pKi of `NC(=O)c1nnn(-c2ccc(S(N)(=O)=O)cc2)c1-c1ccc(F)cc1` .
6.97

Query `NS(=O)(=O)c1ccc(-n2nnc(CO)c2-c2ccc(Cl)cc2)cc1` next
5.92

Query `CCOC(=O)c1nnn(-c2ccc(S(N)(=O)=O)cc2)c1-c1ccc(C)cc1` next
6.70

Query `CCOC(=O)c1nnn(-c2ccc(S(N)(=O)=O)cc2)c1-c1ccc(F)cc1` next
6.20

Query `NS(=O)(=O)c1ccc(-n2nnc(C(=O)O)c2-c2ccc(Cl)cc2)cc1` next
6.15

Query `Cc1ccc(-c2c(C(N)=O)nnn2-c2ccc(S(N)(=O)=O)cc2)cc1` next
7.14

Query `CCOC(=O)c1nnn(-c2ccc(S(N)(=O)=O)cc2)c1-c1ccc(Br)cc1` next
6.64

Query `Cc1ccc(-c2c(CO)nnn2-c2ccc(S(N)(=O)=O)cc2)cc1` next
5.63

Query `NS(=O)(=O)c1ccc(-n2nnc(CO)c2-c2ccc(Br)cc2)cc1` next
5.76

Query `NC(=O)c1nnn(-c2ccc(S(N)(=O)=O)cc2)c1-c1cccs1` next
6.65

Query `CCOC(=O)c1nnn(-c2ccc(S(N)(=O)=O)cc2)c1-c1cccs1` next
6.62

Query `NNC(=O)c1nnn(-c2ccc(S(N)(=O)=O)cc2)c1-c1ccc(Cl)cc1` next
6.04

Query `CCOC(=O)c1nnn(-c2ccc(S(N)(=O)=O)cc2)c1-c1ccc(Cl)cc1` next
5.83

Query `NS(=O)(=O)c1ccc(-n2nnc(C(=O)O)c2-c2ccc(Br)cc2)cc1` next
5.85

Query `NNC(=O)c1nnn(-c2ccc(S(N)(=O)=O)cc2)c1-c1ccc(Br)cc1` next
5.87

Query `NC(=O)c1nnn(-c2ccc(S(N)(=O)=O)cc2)c1-c1ccccn1` next
6.14

Query `NS(=O)(=O)c1ccc(-n2nnc(CO)c2-c2ccccn2)cc1` next
7.84

Query `Cc1ccc(-c2c(C(=O)O)nnn2-c2ccc(S(N)(=O)=O)cc2)cc1` next
5.85
